The reported numbers originate from patent US20200102347A1.

Each item that follows carries a reported Keq (S-S*).
Target: T1, NativeRPtag(large)_with_Tags_and_Cys (Thermoanaerobacter tengcongensis)
T1 construct: Unlabeled in anisotropy assays; coupled through the engineered N-terminal Cys to SulfoLink agarose or maleimide plates in column, pull-down and ELISA assays
T1 chain: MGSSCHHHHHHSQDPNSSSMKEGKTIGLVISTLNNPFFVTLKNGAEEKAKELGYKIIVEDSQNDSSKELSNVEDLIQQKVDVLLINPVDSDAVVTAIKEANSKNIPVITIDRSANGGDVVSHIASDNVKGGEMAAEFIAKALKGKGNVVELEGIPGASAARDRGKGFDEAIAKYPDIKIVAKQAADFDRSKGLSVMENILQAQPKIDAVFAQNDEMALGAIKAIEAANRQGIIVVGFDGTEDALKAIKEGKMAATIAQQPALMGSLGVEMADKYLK
Experiment: fluorescence anisotropy, association kinetics
No end group written: not given here. *: point of attachment. RhodamineB = CCN(CC)c1ccc2c(-c3ccccc3C(=O)*)c3ccc(=[N+](CC)CC)cc-3oc2c1
Measured Metric: Keq (S-S*)

In [3]: df
Out[3]:
                                      binder  recorded_result
 0  RhodamineB-GEKIPNFIPAEAKLITKENVQ [RPtag(small) l12a]              1.1
 1  RhodamineB-KIANFIPAELKLITKANAA [RPtag(small) Nd2, p5a, e18a, v20a, q21a]              0.4
 2  RhodamineB-GEKIPAFIPAELKLITKENVQ [RPtag(small) n6a]              1.3
 3  RhodamineB-GEKIPNFIPAELKLITKENAQ (built here from the native peptide with the stated change) [RPtag(small) v20a]              1.5
 4  RhodamineB-KIPNFIPAELKLITKANVQ [RPtag(small) Nd2, e18a]              0.4
 5  RhodamineB-KIANFIPAELKLITK [RPtag(small) Nd2, Cd4, p5a]              0.8
 6  RhodamineB-GEKIPNFIPAALKLITKENVQ [RPtag(small) e11a]              1.9
 7  RhodamineB-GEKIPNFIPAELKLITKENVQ (Synthetic peptide) [native RPtag(small)]              1.6
 8  RhodamineB-KIPNFIPAELKLITKE [RPtag(small) Nd2, Cd3]              0.6
 9  RhodamineB-KIPNFIPAELKLITKANAA [RPtag(small) Nd2, e18a, v20a, q21a]              0.8
10  RhodamineB-GEKIPNFIPAELKLATKENVQ [RPtag(small) i15a]              1.4
11  RhodamineB-GEKIPNFIPAELKLITKENVA (built here from the native peptide with the stated change) [RPtag(small) q21a]              0.8
12  RhodamineB-GEKIPNFAPAELKLITKENVQ [RPtag(small) i8a]              0.8
